Attribution: patent US11958842B2

Tested on: Molm13 cells
Assay Name: Anti-AML activity, WST-1 viability (Example 72)
Type: cell-based
Measurement Parameters: Homo sapiens; Molm 13 cells, 20% O2, 24 h of incubation, WST-1; read-out: Molm 13 IC50 20% O2
Experimental: Dry powder of analogs were dissolved in DMSO. IPC-18 rat AML cells (Lacaze, N. et al. Leuk. Res. 1983, 7, 145.) were cultured in DMEM medium (Sigma-Aldrich, St. Louis, Mo., USA) supplemented with 10% horse serum (Invitrogen, Carlsbad, Calif., USA), and antibiotics (50 U/mL of penicillin and 0.05 mg/mL streptomycin). […] Mitochondrial conversion of WST-1 to its colored metabolite was measured by a plate reader at 450 nm, with 620 nm as the reference wavelength. […]
Assay Metric: pIC50
Answers are plain numbers, as −log10 of the molar value.

Answered cases to consult:
CC(=O)Oc1cccc2c1[n+]([O-])c1cccc(O)c1[n+]2[O-] [Example 5d] :: 5.25
[O-][n+]1c2ccccc2[n+]([O-])c2c(O)cccc21 [Example 4a, 1-hydroxyphenazine 5,10-dioxide] :: 5.35
COc1cccc2c1[n+]([O-])c1cccc(OC(C)=O)c1[n+]2[O-] [Example 5e] :: 5.82
CCOC(=O)Oc1cccc2c1[n+]([O-])c1cccc(OC(=O)OCC)c1[n+]2[O-] [Example 16e] :: 5.65
CCOC(=O)COc1cccc2c1[n+]([O-])c1cccc(O)c1[n+]2[O-] [Example 5c] :: 6.07
CCOC(=O)COc1cccc2c1[n+]([O-])c1cccc(OCC(=O)OCC)c1[n+]2[O-] [Example 16c] :: 5.39

# ---- query compound ----
Please give the measured pIC50 for this compound: CC(C)(C)OC(=O)COc1cccc2c1[n+]([O-])c1cccc(O)c1[n+]2[O-] [Example 5b]
5.75

---

What IC50 was measured for each of the following?
Tested on: Molm13 cells
Assay Name: Anti-AML activity, WST-1 viability (Example 72)
Assay type: cell-based
Measurement Parameters: Homo sapiens; Molm 13 cells, 2% O2, 24 h of incubation, WST-1; read-out: Molm 13 IC50 2% O2
Answers are plain numbers, in µM.

CCOC(=O)COc1cccc2c1[n+]([O-])c1cccc(OCC(=O)OCC)c1[n+]2[O-] [Example 16c] :: 3.98

Give one value of IC50 per listed compound.
1. COc1cccc2c1[n+]([O-])c1cccc(O)c1[n+]2O [Example 5a, reference compound]
2. CCOC(=O)COc1cccc2c1[n+]([O-])c1cccc(O)c1[n+]2[O-]

1.1
0.65

Give one value of IC50 per listed compound.
1. COc1cccc2c1[n+]([O-])c1cccc(OC(C)=O)c1[n+]2[O-]
2. CCOC(=O)Oc1cccc2c1[n+]([O-])c1cccc(OC(=O)OCC)c1[n+]2[O-] [Example 16e]

1. 1.45
2. 3.5

---

Test system: Molm13 cells
Assay Name: Anti-AML activity, WST-1 viability (Example 72)
Type: cell-based
Measurement Parameters: Homo sapiens; Molm 13 cells, 2% O2, 24 h of incubation, WST-1; read-out: Molm 13 IC50 2% O2
Assay Metric: IC50 (µM)
Give bare numbers, in µM.

[O-][n+]1c2cccc(O)c2[n+]([O-])c2cccc(O)c21 [Example 1c, 1,6-dihydroxyphenazine 5,10-dioxide, reference compound] :: 0.27

Give one value of IC50 per listed compound.
1. CC(C)(C)C(=O)Oc1cccc2c1[n+]([O-])c1cccc(OC(=O)C(C)(C)C)c1[n+]2[O-] [Example 16d]
2. CC(C)(C)OC(=O)COc1cccc2c1[n+]([O-])c1cccc(O)c1[n+]2[O-]
3. CC(=O)Oc1cccc2c1[n+]([O-])c1cccc(O)c1[n+]2[O-]

[5.59, 1.65, 5.61]
